pIC50: −log10 of the molar value.
For reference, the following pIC50 results for GCN2 (Homo sapiens (Human), UniProt Q9P2K8) were taken from various sources.

COMPOUND | pIC50
Cn1ncc2cc(-c3cncc4nc(Nc5ccc(S(C)(=O)=O)cc5)nn34)ccc21 | 5.00 to 5.30
C[C@H]1C[C@@H](C(N)=O)CN(c2ccnc(-c3cnc4ccc(C(F)(F)F)cn34)n2)C1 | > 8.00
Cc1nc2cc(Nc3nc4c(-c5ccc(CN6CCOCC6)c(F)c5)nccn4n3)ccc2[nH]1 | 5.52 to 6.52
COc1cc(Nc2nc3cncc(-c4ccc(NS(C)(=O)=O)cc4)n3n2)ccc1N1CCN(C)CC1 | > 6.00
Fc1cc2ncc(-c3nccc(N4CCCC(c5cn[nH]c5)C4)n3)n2cc1Br (stereo not drawn) | > 8.00
NC(=O)C1CN(c2ccnc(-c3cnc4ccc(C(F)(F)F)cn34)n2)CCN1C1COC1 (stereo not drawn) | 7.00 to 8.00
CN(C)Cc1nc2cc(Nc3nc4cncc(-c5ccc6c(cnn6C)c5)n4n3)ccc2[nH]1 | > 6.00
COc1cccc(Nc2nc3cncc(-c4ccc5c(cnn5C)c4)n3n2)c1 | > 6.00
O=C(c1cnon1)N1CCN(c2ccnc(-c3cnc4ccc(C(F)(F)F)cn34)n2)CC1c1cn[nH]c1 (stereo not drawn) | 7.00 to 8.00
Cc1nc2cc(Nc3nc4c(-c5ccc(C(=O)N6CCOCC6)cc5)nccn4n3)ccc2[nH]1 | 5.52 to 6.52
CC(C)C(O)(c1n[nH]c2cc(Nc3nc4c(-c5cnn(C)c5)nccn4n3)ccc12)C(C)C | 5.52 to 6.52
O=C(c1cnn(C2COC2)c1)N1CCN(c2ccnc(-c3cnc4ccc(C(F)(F)F)cn34)n2)CC1c1cn[nH]c1 (stereo not drawn) | 6.00 to 7.00
CC1C(C(N)=O)NCCN1c1ccnc(-c2cnc3cc(F)c(C4CC4)cn23)n1 (stereo not drawn) | 7.00 to 8.00
CC1(F)CCCN(c2ccnc(-c3cnc4ccc(C(F)(F)F)cn34)n2)C1 (stereo not drawn) | 6.00 to 7.00
NS(=O)(=O)c1ccc2ncc(-c3nccc(N4CCCC(c5cn[nH]c5)C4)n3)n2c1 (stereo not drawn) | 7.00 to 8.00
C[C@@H]1CN(c2nccc(-c3cnc4cc(F)c(Cl)cn34)n2)C[C@@H](c2cn[nH]c2)O1 | 7.00 to 8.00
Cn1cc(-c2cncc3nc(Nc4cccc(N5CCOCC5)c4)nn23)cn1 | > 6.00
Fc1ccc(-c2cncc3nc(Nc4cccnc4)nn23)cc1 | 5.30 to 6.00
Cc1cc(Nc2nc3cncc(-c4cnn(C)c4)n3n2)ccc1C(=O)N1CCOCC1 | > 6.00
NC(=O)[C@@H]1CCCN(c2nc(-c3cnc4ccc(C(F)(F)F)cn34)ccc2F)C1 | > 8.00
COc1cc(Nc2nc3cncc(-c4cnn(C5CCOCC5)c4)n3n2)ccc1N1CCN(C)CC1 | > 6.00
C[C@H]1[C@H](c2cn[nH]c2)NCCN1c1ccnc(-c2cnc3ccc(C(F)(F)F)cn23)n1 | 6.00 to 7.00
CNS(=O)(=O)c1ccc(-c2cncc3nc(Nc4ccc(N5CCN(C)CC5)c(OC)c4)nn23)cc1 | > 6.00
CN1CCN(c2ncc(Nc3nc4cncc(-c5cnn(C)c5)n4n3)cn2)CC1 | > 6.00
